Each entry below carries its reported IC50.
- Test system: SARS-CoV-2 (B.1)
- method: microbe, parasite or virus in culture
- Type: cell-based
- conditionNotes: Severe acute respiratory syndrome coronavirus 2, Vero C1008, 48 h
Quick note: give the figure in nM, leave out the unit.

| smilesString | measuredOn | measuredProperty | observedValue |
| --- | --- | --- | --- |
| CC(C)CC(=O)OC[C@H]1O[C@@](C#N)(c2ccc3c(N)ncnn23)[C@H](O)[C@@H]1O | SARS-CoV-2 (B.1) | IC50 | 2190 |
| N#C[C@@]1(c2ccc3c(N)ncnn23)O[C@H](COC(=O)c2ccccc2)[C@@H](O)[C@H]1O | SARS-CoV-2 (B.1) | IC50 | 2260 |

Continue with the molecule presented below.
In: Which value of IC50 has been reported for CCCCCCCCC(=O)OC[C@H]1O[C@@](C#N)(c2ccc3c(N)ncnn23)[C@H](O)[C@@H]1O in the records?
Out: 696

###

- method: PK study in cynomolgus monkeys
- Format: in vivo
- conditionNotes: male, cynomolgus monkey, plasma, IV 5 mg/kg, analyzed ATV006
measuredProperty: Tmax (min)
I only need the number, in min, no unit after it.

In: Any idea what Tmax was measured for CC(C)C(=O)OC[C@H]1O[C@@](C#N)(c2ccc3c(N)ncnn23)[C@H](O)[C@@H]1O ?
Out: 5

###

pIC50 for assorted compounds
- System: SARS-CoV replicon
- method: microbe, parasite or virus in culture
- Assay type: cell-based
- conditionNotes: Severe acute respiratory syndrome coronavirus, HEK-293T, 60 h
Reminder that pIC50 is minus the log10 of a molar concentration.

| compound | pIC50 |
| --- | --- |
| CC(C)C(=O)OC[C@H]1O[C@@](C#N)(c2ccc3c(N)ncnn23)[C@H](O)[C@@H]1O | 6.24 |

In: Lab note: need pIC50 with SARS-CoV replicon for entry N#C[C@@]1(c2ccc3c(N)ncnn23)O[C@H](CO)[C@@H](O)[C@H]1O [GS-441524, reference compound] , please look it up.
Out: 5.96

In: Find pIC50 (SARS-CoV replicon) for the entry CC(C)[C@H](N)C(=O)OC[C@H]1O[C@@](C#N)(c2ccc3c(N)ncnn23)[C@H](O)[C@@H]1O
Out: 5.89

In: # returns recorded pIC50 (system: SARS-CoV replicon) for CC(C)[C@@H](N)C(=O)OC[C@H]1O[C@@](C#N)(c2ccc3c(N)ncnn23)[C@H](O)[C@@H]1O
Out: 6.10

In: Find the measured pIC50: item CC(=O)OC[C@H]1O[C@@](C#N)(c2ccc3c(N)ncnn23)[C@H](OC(C)=O)[C@@H]1OC(C)=O , target or system SARS-CoV replicon.
Out: 6.04
